read-out: Alpha-fetoprotein (AFP) gene, AFP (gene 174); test: LTEA_HepaRG_AFP: Life Technologies and Expression Analysis (LTEA) Assay for Alpha-fetoprotein (AFP) gene using HepaRG (AID 2283472); details: mRNA level, 48 h; actives raise or lower the signal
Active and inactive are the calls of the source. The calls were made as follows: active = hit-call score of the fitted dose curve at least 0.9, where 1 is the maximum; inactive = score below 0.9.
Reply using exactly one outcome from YES = active, NO = inactive

Here are 4 compounds together with their reported answers.
> print(dat)
                  compound  qualitative.label
1  CN(C)C(=O)Nc1ccc(Cl)cc1                 NO
2      C=CCc1ccc2c(c1)OCO2                 NO
3    Brc1ccc(Oc2ccccc2)cc1                 NO
4       CCCSC(=O)N(CCC)CCC                 NO

Ask: Per the assay record, what outcome was assigned to c1ccc(C2CO2)cc1 (stereo not drawn) ?
Reply: NO

Ask: Per the assay record, what outcome was assigned to `O=Cc1ccco1` ?
Reply: NO

Ask: Per the assay record, what outcome was assigned to `O=C1CCCO1` ?
Reply: NO

Ask: Per the assay record, what outcome was assigned to CC(C)(C)C(O)(CCc1ccc(Cl)cc1)Cn1cncn1 (stereo not drawn) ?
Reply: YES
